Values were extracted from patent US11667643B2.

- TEST SYSTEM: RIPK1 (Homo sapiens (Human), UniProt Q13546)
- Sequence (Q13546 whole entry, species assumed): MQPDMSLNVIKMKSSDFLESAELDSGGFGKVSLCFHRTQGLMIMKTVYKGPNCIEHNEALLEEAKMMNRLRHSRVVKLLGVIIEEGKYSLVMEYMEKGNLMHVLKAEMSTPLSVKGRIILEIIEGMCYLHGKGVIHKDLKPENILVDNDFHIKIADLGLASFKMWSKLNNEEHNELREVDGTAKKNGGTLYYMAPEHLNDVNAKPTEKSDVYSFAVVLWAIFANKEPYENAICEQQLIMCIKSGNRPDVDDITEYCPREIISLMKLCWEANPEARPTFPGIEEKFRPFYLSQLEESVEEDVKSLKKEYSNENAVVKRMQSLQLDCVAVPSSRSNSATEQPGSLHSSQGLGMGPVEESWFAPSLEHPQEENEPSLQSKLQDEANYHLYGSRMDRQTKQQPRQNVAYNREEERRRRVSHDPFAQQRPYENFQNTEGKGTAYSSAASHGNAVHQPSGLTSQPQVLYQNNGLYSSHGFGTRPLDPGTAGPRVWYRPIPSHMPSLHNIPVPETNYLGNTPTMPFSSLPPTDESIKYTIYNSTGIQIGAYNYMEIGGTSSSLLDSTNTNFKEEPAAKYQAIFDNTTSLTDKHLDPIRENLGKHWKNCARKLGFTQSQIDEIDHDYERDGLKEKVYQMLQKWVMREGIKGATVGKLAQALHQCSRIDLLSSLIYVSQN
- PROTOCOL NOTES: biochemical
- Type: biochemical
- CONDITIONS USED: RIPK1 enzyme 31 ng/well, 30° C. for 30 minutes, luminescence; read-out: RIPK1 ADP-Glo Kinase (IC50)
READOUT NAME: pIC50
Would you please state pIC50, meaning minus log10 of the concentration in mol/L, as a bare number?

COMPOUND | READOUT NAME | REPORTED
O=C(N[C@H]1CSc2ccccc2-n2nnnc21)c1n[nH]c(Cc2ccc(F)cc2)n1 | pIC50 | 7.73
O=C(N[C@H]1COc2ccccc2-n2c1noc2=O)c1n[nH]c(Cc2ccc(F)cc2)n1 | pIC50 | 6.96
O=C(N[C@H]1CCc2ccc(N3CCC4(CCOCC4)CC3)cc2-n2ccnc21)c1n[nH]c(Cc2ccccc2)n1 | pIC50 | 7.36
CC(C)(O)C#Cc1ccc2c(c1)-n1cnnc1C(NC(=O)c1n[nH]c(Cc3ccccc3)n1)CC2 (racemic) | pIC50 | 6.66
O=C(N[C@H]1COc2ccccc2-n2nnnc21)c1cc(Cc2ccccc2)on1 | pIC50 | 6.28

Ask: GET /values?readout=pIC50&item= O=C(NC1COc2ccccc2-n2cccc21)c1cc(Oc2ccccc2)ccn1 (racemic)
Result: 6.23

Ask: What would you report for O=C(NC1COc2ccccc2-n2cccc21)c1ncn(Cc2ccccc2F)n1 (racemic) ?
Result: 7.65
